These data points were gathered from BigSolDB 2.1.

Details: in n-butyl acetate, 298.15 K
propertyMeasured: solubility (mole fraction)

Lab note: Cc1nc2n(c(=O)c1CCN1CCC(c3noc4cc(F)ccc34)CC1)CCCC2 gave solubility (mole fraction) of 0.00241

---

Conditions: in isobutyl acetate, 298.15 K
propertyMeasured: solubility (mole fraction)
Output: the number by itself.

Lab note: Cc1nc2n(c(=O)c1CCN1CCC(c3noc4cc(F)ccc34)CC1)CCCC2 gave solubility (mole fraction) of 0.00183

---

Details: in n-propyl acetate, 288.15 K
propertyMeasured: solubility (mole fraction)
Output: the number by itself.

Lab note: Cc1nc2n(c(=O)c1CCN1CCC(c3noc4cc(F)ccc34)CC1)CCCC2 gave solubility (mole fraction) of 0.00166
